# System: SK-MEL-5 melanoma
# TEST_SUMMARY: NCI tumour cell line growth inhibition, 48 h
Classify by measured TGI: 1 (yes) if it is equal to or exceeds 30 µM, 0 (no) if it is smaller.

Use these answered entries as a reference point.
>  <COMPOUND>
Oc1ccc(-c2nc3ccc4[nH]ncc4c3c3c2CCCC3)c(F)c1

>  <CLASSIFICATION>
0 (no)

$$$$
>  <COMPOUND>
CCC/C=C1\CCC(CN(C)C)C1=O (configuration not stated)

>  <CLASSIFICATION>
1 (yes)

$$$$
>  <COMPOUND>
CCOc1cc(Br)c(C(C)NC(=O)c2cccc(OC)c2)cc1OCC (configuration not stated)

>  <CLASSIFICATION>
1 (yes)

$$$$
>  <COMPOUND>
Cc1c(-c2ccccc2)nn2cc(-c3ccccc3)nnc12

>  <CLASSIFICATION>
1 (yes)

$$$$

Q: Say whether COP(=O)(OC)C(NC(=O)C(F)(F)F)(c1ccccc1)C(F)(F)F (configuration not stated) shows TGI of 30 µM or more.
Result: 1 (yes)

Q: Say whether O=[N+]([O-])c1ccccc1S(=O)(=O)c1ccccc1 shows TGI of 30 µM or more.
Result: 1 (yes)

Q: Say whether C#CC[N+](C)(CC#C)CC#C shows TGI of 30 µM or more.
Result: 1 (yes)

Q: Say whether CCC(c1ccc(OC)cc1)C(CC)c1ccc(O)c(CN2CCN(C)CC2)c1 (configuration not stated) shows TGI of 30 µM or more.
Result: 0 (no)

Q: Say whether S=c1[nH]nc(Cc2ccccc2)c(=S)[nH]1 shows TGI of 30 µM or more.
Result: 1 (yes)

Q: Say whether CCCCCc1nnc(NS(=O)(=O)c2ccc(NC(=O)OCC(C)C)cc2)s1 shows TGI of 30 µM or more.
Result: 1 (yes)

Q: Say whether Clc1ccc(-c2nnc(-c3cccc4ccccc34)o2)cc1Cl shows TGI of 30 µM or more.
Result: 1 (yes)

* * *

# Test system: NCI-H23 lung
# TEST_SUMMARY: NCI tumour cell line growth inhibition, 48 h; in the data active = GI50 below about 0.43 µM; inactive = the rest
Outcome field: choose from Yes (active), No (inactive)

Use these answered entries as a reference point.
>  <COMPOUND>
COc1ccc2c(C3(c4cn(C)c5cc(OC)ccc45)C(=O)Nc4ccc(Cl)cc43)cn(C)c2c1

>  <ASSAY_SYSTEM>
NCI-H23 lung

>  <CLASSIFICATION>
No

$$$$
>  <COMPOUND>
COc1cccc(-c2nn(-c3ccccc3)cc2-c2ccnc(NCCNC(=O)Nc3cccc(C(F)(F)F)c3)c2)c1

>  <ASSAY_SYSTEM>
NCI-H23 lung

>  <CLASSIFICATION>
No

$$$$
>  <COMPOUND>
N[C@@H]1C(=O)N2C(C(=O)OC(c3ccccc3)c3ccccc3)=C(CCl)CS[C@H]12

>  <ASSAY_SYSTEM>
NCI-H23 lung

>  <CLASSIFICATION>
No

$$$$
>  <COMPOUND>
CCOC(=O)c1c(C)n(Cc2ccccc2)c2c1cc(O)c1[nH]c(Cc3ccccc3)nc12

>  <ASSAY_SYSTEM>
NCI-H23 lung

>  <CLASSIFICATION>
No

$$$$
>  <COMPOUND>
Clc1ccc(-c2csc(Nc3cccc(-c4csc(-c5ccccc5)n4)c3)n2)cc1

>  <ASSAY_SYSTEM>
NCI-H23 lung

>  <CLASSIFICATION>
No

$$$$

Q: # outcome recorded in this test, key = CN(Cc1cccc(F)c1)c1ccc(CO)c(Cl)c1
Result: No

Q: # outcome recorded in this test, key = Cc1ccc(-c2c3c(nn2-c2ccc(S(N)(=O)=O)cc2)-c2ccccc2C3)cc1
Result: No

Q: # outcome recorded in this test, key = COc1cccc(/C=N/NC(=S)NC2CC3CCC2C3)c1O (centres undefined)
Result: No

Q: # outcome recorded in this test, key = Cc1ccc(/C=C2\CN(C(=O)C(Cl)Cl)C/C(=C\c3ccc(C)cc3)C2=O)cc1
Result: Yes

Values were extracted from PubChem BioAssay (NCI).
